Give measured MIC for each item. Keep answers brief.
- System: Nannizzia gypsea
- Method Description: Minimum inhibitory concentration Microsporum gypseum
- Assay type: functional
Answers are plain numbers, in µg/mL.

Query: Param readout = MIC; param system = Nannizzia gypsea; param query = "CCOC(=O)c1ccc(/N=C(\S)Nc2cccc(/N=C(/S)Nc3ccc(C(=O)OCC)cc3)c2)cc1" ; response: value
Result: 64

Query: Param item: "COC(=O)c1ccc(/N=C(\S)Nc2ccc(/N=C(\S)Nc3ccc(C(=O)OC)cc3)cc2)cc1"
Result: 256

Query: Subsequent entry: "O=C(O)c1ccc(/N=C(\S)Nc2cccc(/N=C(/S)Nc3ccc(C(=O)O)c(O)c3)c2)cc1O"
Result: 64

Consider now this further compound.
Query: Form entry - test system: Nannizzia gypsea; read-out: MIC; compound: "CCOC(=O)c1ccc(/N=C(\S)Nc2ccc(/N=C(/S)Nc3ccc(C(=O)OCC)c(O)c3)cc2)cc1O"
Result: 256
